System: L02
Assay: Antiproliferative activity against human L02 cells assessed as reduction in cell growth
test-readout: IC50 (µM)
Answers are plain numbers, in µM.

>>> print(df.to_string())
                                   compound  measurement_unit  result_value
0  CN(C)C1CCN(C(=O)CCC(=O)C(c2ccc(Cl)cc2)C(C(=O)c2ccc(Cl)cc2)c2ccc(F)cc2Cl)CC1 (configuration not stated)                µM          15.9

Next:
For the compound O=C(CCC(=O)N1CCNCC1)C(c1ccc(Cl)cc1)C(C(=O)c1ccc(Cl)cc1)c1ccc(F)cc1Cl (configuration not stated) , what IC50 is on record?
12.6

* * *

Test system: ZR-75-30
Test: Cytotoxicity against human ZR-75-30 cells assessed as reduction in cell growth
test-readout: IC50 (µM)
One number for each entry, in µM.

# input compound: `Cc1c2ccccc2c(CSC(=N)N)c2ccccc12` ; wanted: its IC50
1.5

* * *

Test: Antiproliferative activity against human BEAS-2B cells assessed as reduction in cell growth
Kindly state pIC50 for each of the entries shown.
Answers are plain numbers, as −log10 of the molar value.

                                   molecule  test_readout  result_value
0  CN(C)C1CCN(C(=O)CCC(=O)C(c2ccc(Cl)cc2)C(C(=O)c2ccc(Cl)cc2)c2ccc(F)cc2Cl)CC1 (configuration not stated)         pIC50          4.74

Moving on to the next molecule.
Find the recorded pIC50 belonging to O=C(CCC(=O)N1CCNCC1)C(c1ccc(Cl)cc1)C(C(=O)c1ccc(Cl)cc1)c1ccc(F)cc1Cl (configuration not stated) and report it.
4.79

* * *

Biological target: Protein Mdm4 (Homo sapiens, UniProt O15151)
Sequence (O15151 whole entry): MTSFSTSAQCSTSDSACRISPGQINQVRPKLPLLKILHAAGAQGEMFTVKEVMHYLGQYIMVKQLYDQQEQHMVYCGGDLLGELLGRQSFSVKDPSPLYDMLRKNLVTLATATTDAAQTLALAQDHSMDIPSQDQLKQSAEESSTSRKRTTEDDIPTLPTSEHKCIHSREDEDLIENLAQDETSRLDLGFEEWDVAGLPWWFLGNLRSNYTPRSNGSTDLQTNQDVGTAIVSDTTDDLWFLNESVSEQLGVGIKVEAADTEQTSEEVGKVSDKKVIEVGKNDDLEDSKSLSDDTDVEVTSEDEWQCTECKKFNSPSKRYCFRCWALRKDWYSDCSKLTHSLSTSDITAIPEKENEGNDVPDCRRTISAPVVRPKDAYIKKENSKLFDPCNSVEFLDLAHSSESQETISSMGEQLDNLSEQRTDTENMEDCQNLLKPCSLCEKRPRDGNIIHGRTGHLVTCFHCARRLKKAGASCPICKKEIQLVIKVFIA
test-readout: pKd
One number for each entry, as −log10 of the molar value.

Please tell me: pKd of `Ac-ETFLDLWRLLLQN-NH2` , system Protein Mdm4 (Homo sapiens, UniProt O15151)?
3.96

* * *

System: HL-60
Test: Antiproliferative activity against human HL-60 cells assessed as reduction in cell viability incubated for 24 hrs by Celltiter-Glo assay
Settings: HL-60, 24 h
test-readout: IC50 (µM)
Answers are plain numbers, in µM.

Which measured IC50 value corresponds to `O=c1cc(-c2ccc(Oc3c(O)cc4oc(-c5ccc(O)cc5)cc(=O)c4c3O)cc2)oc2cc(O)cc(O)c12` ?
11
